// reported melting point per item

input: Give me measured melting point, please, for this compound: O=c1[nH]c2ncc(-c3ccc(F)nc3)nc2n1CC1CCOCC1 [Compound 231]
output: 220 to 222 °C

====

RESULT_TYPE: melting point

* Cn1cc(-c2cnc3[nH]c(=O)n(CC4CCOCC4)c3n2)cn1 [Compound 170] | 224 to 226 °C
* CC(C)Cn1c(=O)[nH]c2ncc(-c3ccc(O)cc3)nc21 [Compound 89] | 290 to 291 °C
* O=c1[nH]c2ncc(-c3ccc4[nH]ccc4c3)nc2n1CC1CCOCC1 [Compound 146] | 305 to 308 °C

input: # return recorded melting point for entry O=c1[nH]c2ncc(-c3ccc(-c4n[nH]c(C(F)(F)F)n4)cc3)nc2n1CC1CCCCC1 [Compound 163]
output: 303 to 305 °C

input: Please look at this compound and report its melting point: O=c1[nH]c2ncc(-c3ccnc(O)c3)nc2n1CC1CCCCC1 [Compound 154]
output: 311 to 313 °C

input: Item O=c1[nH]c2ncc(-c3ccc(-c4cc[nH]n4)cc3)nc2n1CC1CCCCC1 [Compound 160] : provide melting point
output: 292 to 294 °C

input: Please give the documented melting point of CNC(=O)c1ccc(-c2cnc3[nH]c(=O)n(CC4CCOCC4)c3n2)cc1 [Compound 142]
output: 328 to 330 °C

====

RESULT_TYPE: melting point

Examples from the recorded data:
• CC(C)(O)c1ccc(-c2cnc3[nH]c(=O)n(CC4CCCCC4)c3n2)cn1 = > 250 °C
• O=c1[nH]c2ncc(-c3ccc(-n4cccn4)cc3)nc2n1CC1CCOCC1 = 294 to 296 °C
• COc1ccc(-c2cnc3[nH]c(=O)n(CC4CCCCC4)c3n2)cn1 = 235 to 237 °C

input: Please list melting point recorded for the compound CC(C)n1c(=O)[nH]c2ncc(-c3ccc(O)cc3)nc21
output: 323 to 324 °C

input: Give reported melting point value for O=c1[nH]c2ncc(-c3ccc(-c4n[nH]c(CN5CCOCC5)n4)cc3)nc2n1CC1CCOCC1
output: 281 to 283 °C

input: Entry Nc1ccc(-c2cnc3[nH]c(=O)n(CC4CCOCC4)c3n2)cn1 needs its melting point filled in; supply it.
output: > 260 °C

input: Find the measured melting point of COC(=O)c1ccc(-c2cnc3[nH]c(=O)n(CC4CCCCC4)c3n2)cc1 and report it.
output: 253 to 255 °C

input: Indicate its recorded melting point; the compound in question is NC(=O)c1ccc(-c2cnc3[nH]c(=O)n(CCC4CCOCC4)c3n2)cc1
output: 233 to 236 °C

input: Give recorded melting point. COCCn1c(=O)[nH]c2ncc(-c3ccc(O)cc3)nc21
output: 236 to 237 °C

input: Entry COc1cc(-c2cnc3[nH]c(=O)n(CC4CCCCC4)c3n2)ccn1 needs its melting point filled in; supply it.
output: 295 to 297 °C

====

RESULT_TYPE: melting point

Sample records with melting point:
- N#Cc1ccc(-c2cnc3[nH]c(=O)n(CC4CCCCC4)c3n2)cc1 [Compound 110]: 255 to 257 °C
- NC(=O)c1ccc(-c2cnc3[nH]c(=O)n(CC4CCOCC4)c3n2)cc1 [Compound 143]: 273 to 275 °C
- CN1CCC(Cn2c(=O)[nH]c3ncc(-c4ccc(O)cc4)nc32)CC1 [Compound 109]: 292 to 294 °C

input: Supply reported melting point belonging to this molecule: O=c1[nH]c2ncc(-c3cccnc3)nc2n1CC1CCCCC1 [Compound 101]
output: 205 °C

input: Tell me its melting point given O=c1[nH]c2ncc(-c3ccc(CO)cc3)nc2n1CC1CCCCC1 [Compound 100] as the entry.
output: 275 to 277 °C

input: Specify measured melting point for NC(=O)c1ccc(-c2cnc3[nH]c(=O)n(CC4CCCCC4)c3n2)cc1 [Compound 96] .
output: 293 to 295 °C

input: State its melting point for this molecule: O=c1[nH]c2ncc(-c3ccc(-c4nc[nH]n4)nc3)nc2n1CC1CCOCC1 [Compound 202]
output: 353 to 356 °C

input: Return the recorded melting point value; entry: O=c1[nH]c2ncc(-c3ccc4[nH]cnc4c3)nc2n1CC1CCCCC1 [Compound 148]
output: 217 to 220 °C

input: Return melting point (reported value) for this molecule: O=c1[nH]c2ncc(-c3cn[nH]c3)nc2n1CC1CCCCC1 [Compound 126]
output: 246 to 248 °C

input: Specify reported melting point for the molecule shown: O=c1[nH]c2ncc(-c3ccc(O)cc3)nc2n1CCC1CCOCC1 [Compound 120]
output: 276 to 277 °C

input: // fetch melting point given entry O=c1[nH]c2ncc(-c3ccc(O)cc3)nc2n1CC1CCCOC1 (stereo not drawn) [Compound 90]
output: 271 to 272 °C

input: In one line, give reported melting point of the entry O=c1[nH]c2ncc(-c3ccc(O)cc3)nc2n1CC1CCOC1 (stereo not drawn) [Compound 172] .
output: 256 to 258 °C

input: Using the record for O=c1[nH]c2ncc(-c3ccc(O)cc3)nc2n1CC1CCCC1 [Compound 87] , state its measured melting point.
output: 296 to 297 °C

input: # return recorded melting point for input O=c1[nH]c2ncc(-c3ccc(-c4cn[nH]c4)cc3)nc2n1CC1CCCCC1 [Compound 161]
output: 305 to 307 °C

====

RESULT_TYPE: melting point

Here is how some compounds turned out for melting point.
• Cc1n[nH]cc1-c1cnc2[nH]c(=O)n(CC3CCOCC3)c2n1 = 222 to 224 °C
• O=C1NCc2cc(-c3cnc4[nH]c(=O)n(CC5CCCCC5)c4n3)ccc21 = 337 to 339 °C
• O=c1[nH]c2ncc(-c3ccc4[nH]ncc4c3)nc2n1CC1CCCCC1 = 311 to 313 °C
• CNc1ccc(-c2cnc3[nH]c(=O)n(CC4CCOCC4)c3n2)cn1 = > 260 °C
• O=c1[nH]c2ncc(-c3ccc(-c4ncc[nH]4)cc3)nc2n1CC1CCCCC1 = 349 to 351 °C

input: Could you please provide reported melting point for O=C1CCCN1CCCn1c(=O)[nH]c2ncc(-c3ccc(O)cc3)nc21 ? Thanks!
output: 305 to 306 °C

input: Input C[C@H](c1ccccc1)n1c(=O)[nH]c2ncc(-c3ccc(-c4nc[nH]n4)cc3)nc21 , output reported melting point.
output: 258 to 260 °C

input: Annotate the compound Nc1ncc(-c2cnc3[nH]c(=O)n(CC4CCCCC4)c3n2)cn1 with its measured melting point.
output: > 250 °C

====

As a worked illustration, we turn to pIC50 data collected for mTOR (Homo sapiens).
pIC50: −log10 of the molar value.

• COc1cccc(Cn2c(=O)[nH]c3ncc(-c4ccc(S(C)(=O)=O)cc4)nc32)c1 = 5.30 to 7.00
• CC(c1cccc(F)c1)n1c(=O)[nH]c2ncc(-c3cccc4ncccc34)nc21 (centres unmarked) = 5.00 to 5.29
• O=c1[nH]c2ncc(-c3cccc4ncccc34)nc2n1C1CCC(O)CC1 (centres unmarked) [Compound 60] = < 4.52

input: Given CC(c1ccccc1)n1c(=O)[nH]c2ncc(-c3cccc(N(C)C)c3)nc21 (centres unmarked) , report its pIC50 on mTOR (Homo sapiens).
output: < 4.52

input: Provide mTOR (Homo sapiens) pIC50 reading for Cc1nc2[nH]c(=O)n([C@H](C)c3ccccc3)c2nc1-c1cccc2ncccc12 .
output: < 4.52

input: Provide pIC50, recorded with mTOR (Homo sapiens), of Cc1nc2[nH]c(=O)n([C@@H](C)c3ccccc3)c2nc1-c1cccc2ncccc12
output: < 4.52

input: Print mTOR (Homo sapiens) pIC50 for CC(c1ccc(F)cc1)n1c(=O)[nH]c2ncc(-c3cccc4ncccc34)nc21 (centres unmarked) .
output: 5.00 to 5.29

input: Enter recorded pIC50 with mTOR (Homo sapiens) for O=c1[nH]c2ncc(-c3cccc4ncccc34)nc2n1C1CCCOC1 (centres unmarked) here.
output: 4.70 to 5.00

====

Target or system mTOR (Homo sapiens, UniProt P42345): recorded IC50 listed per item.

Field: example entries. Status: answers known.
- CC(C)n1c(=O)[nH]c2ncc(-c3cccc4ncccc34)nc21: 5.1 to 10 µM
- COc1cccc(Cn2c(=O)[nH]c3ncc(-c4cccc5ncccc45)nc32)c1: 0.1 to 5 µM
- O=c1[nH]c2ncc(-c3cccc4ncccc34)nc2n1C1CCC(O)CC1 (centres unmarked) [Compound 59]: 10.1 to 20 µM
- COc1cccc(C(C)n2c(=O)[nH]c3ncc(-c4cccc5ncccc45)nc32)c1 (centres unmarked): 5.1 to 10 µM
- COc1ccc(Cn2c(=O)[nH]c3ncc(-c4cccc5ncccc45)nc32)cc1: 0.1 to 5 µM

input: // output IC50; input C[C@H](c1ccccc1)n1c(=O)[nH]c2cnc(-c3cccc4ncccc34)cc21 ; system mTOR (Homo sapiens, UniProt P42345)
output: > 30 µM

input: Fetch value of IC50 on mTOR (Homo sapiens, UniProt P42345) for O=c1[nH]c2ncc(-c3cccc4ncccc34)nc2n1Cc1ccccc1 .
output: 0.1 to 5 µM

input: Find the measured IC50 of CC[C@H](c1ccccc1)n1c(=O)[nH]c2ncc(-c3cccc4ncccc34)nc21 with mTOR (Homo sapiens, UniProt P42345) as test system.
output: > 30 µM

input: Under mTOR (Homo sapiens, UniProt P42345), report IC50 for CC(C)n1c(=O)[nH]c2ncc(-c3ccc(O)cc3)nc21
output: 0.1 to 5 µM

input: Print mTOR (Homo sapiens, UniProt P42345) IC50 for C[C@@H](c1ccccc1)n1c(=O)[nH]c2ncc(-c3cccc4ncccc34)nc21 .
output: 5.1 to 10 µM

input: System mTOR (Homo sapiens, UniProt P42345). Read-out IC50. Item C[C@@H](c1ccccc1)n1c(=O)[nH]c2cnc(-c3cccc4ncccc34)cc21 . Report value.
output: > 30 µM
